Data provenance is the supplement of paper PMC8253809.

Reported growth inhibition values are given for each entry in this list.
system: HNSC; assay: growth inhibition (% activity, log2 RLU normalised to DMSO / staurosporine); higher = more growth inhibition; details: 33 µM
Field format: number, assumed %, no unit text.

In the examples that follow, each entry is paired with its recorded growth inhibition.
{"Molecule": "CCCc1nn(C)c2c(=O)[nH]c(-c3cc(S(=O)(=O)N4CCN(C)CC4)ccc3OCC)nc12", "Output Unit": "%", "growth inhibition": 0.834}
{"Molecule": "CCCCCCCCCCCC[N+](C)(C)CCOc1ccccc1", "Output Unit": "%", "growth inhibition": 55.6}
{"Molecule": "Cc1nnc(C(=O)NC(C)(C)c2nc(C(=O)NCc3ccc(F)cc3)c(O)c(=O)n2C)o1", "Output Unit": "%", "growth inhibition": 4.29}
{"Molecule": "CN(C)CCCN1c2ccccc2CCc2ccc(Cl)cc21", "Output Unit": "%", "growth inhibition": 8.46}
{"Molecule": "COC(=O)N[C@H](C(=O)N[C@@H](Cc1ccccc1)[C@@H](O)CN(Cc1ccc(-c2ccccn2)cc1)NC(=O)[C@@H](NC(=O)OC)C(C)(C)C)C(C)(C)C", "Output Unit": "%", "growth inhibition": -5.7}
{"Molecule": "O=C1CCc2ccc(OCCCCN3CCN(c4cccc(Cl)c4Cl)CC3)cc2N1", "Output Unit": "%", "growth inhibition": 22}
{"Molecule": "O=C(O)c1cc(=O)c2c(OCC(O)COc3cccc4oc(C(=O)O)cc(=O)c34)cccc2o1", "Output Unit": "%", "growth inhibition": -1.63}
{"Molecule": "CCOc1nc2cccc(C(=O)OC(C)OC(=O)OC3CCCCC3)c2n1Cc1ccc(-c2ccccc2-c2nn[nH]n2)cc1 (centres undefined)", "Output Unit": "%", "growth inhibition": -2.55}

Okay, next one:
What growth inhibition appears in the records for this molecule with HNSC? Nc1nc(O)c2ncn(CCC(CO)CO)c2n1
0.639

---

test system: DIPGX9 (diffuse intrinsic pontine glioma line); experiment: growth inhibition (% activity, log2 RLU normalised to DMSO / staurosporine); higher = more growth inhibition; conditions: 33 µM
Let's look at some compounds and their measured growth inhibition.
All answers are understood in %, so give the number only.

API: value(readout=growth inhibition, system=DIPGX9) for record O=C(CCCN1CC=C(n2c(=O)[nH]c3ccccc32)CC1)c1ccc(F)cc1
-2.63

And then N=C(N)N , what is it?
0.0493

Next compound up: NC[C@H](O)c1ccc(O)c(O)c1
1.67

---

tested on: DIPGX7 (H3.3 K27M diffuse intrinsic pontine glioma line); assay: growth inhibition (% activity, log2 RLU normalised to DMSO / staurosporine); higher = more growth inhibition; details: 33 µM
Value Kind: growth inhibition (%)
API: value field is a number in %; no unit string.

Consider the worked cases shown below.
{"Compound": "C[C@H](Cn1cnc2c(N)ncnc21)OCP(=O)(O)O", "System Under Test": "DIPGX7", "Output Unit": "%", "growth inhibition": -1.11}
{"Compound": "C=C1CCC(O)CC1=CC=C1CCCC2(C)C1CCC2C(C)CCCC(C)(C)O (stereo not given)", "System Under Test": "DIPGX7", "Output Unit": "%", "growth inhibition": 3.34}
{"Compound": "COC(=O)[C@H](Cc1ccccc1)NC(=O)[C@@H](N)CC(=O)O", "System Under Test": "DIPGX7", "Output Unit": "%", "growth inhibition": -2.17}
{"Compound": "Nc1ccc(S(=O)(=O)Nc2ncccn2)cc1", "System Under Test": "DIPGX7", "Output Unit": "%", "growth inhibition": 0.776}

Please tell me: growth inhibition of C[C@@H](O)[C@H]1C(=O)N2C(C(=O)O)=C(S[C@@H]3CN[C@H](C(=O)N(C)C)C3)[C@H](C)[C@H]12 , system DIPGX7?
-1.37

Now this one: COc1cc(Cc2cnc(N)nc2N)cc(OC)c1OC
1.59

Quick one: Cc1cccc(CN2CCN(C(c3ccccc3)c3ccc(Cl)cc3)CC2)c1 (stereo not given)
7.93
